Ref: PubChem BioAssay (NCI)

Tested on: UACC-257 melanoma
methodNotes: NCI tumour cell line growth inhibition, 48 h
Recorded TGI values for a group of molecules are listed next.

{"molecule": "CC(=O)N(C(C)=O)C1=C2c3ccccc3N(S(=O)(=O)c3ccccc3)C2n2c(=O)n(-c3ccccc3)c(=O)n2C1 (stereo unspecified)", "measuredOn": "UACC-257 melanoma", "TGI": "> 100 µM"}
{"molecule": "O=C(/C=C/c1ccsc1)c1ccsc1", "measuredOn": "UACC-257 melanoma", "TGI": "39.6 µM"}
{"molecule": "C=CCn1c(=O)ccn(COCCO)c1=O", "measuredOn": "UACC-257 melanoma", "TGI": "> 100 µM"}
{"molecule": "COC1OC(C)C(OCc2ccccc2)C(OS(=O)(=O)c2ccc(C)cc2)C1OS(=O)(=O)c1ccc(C)cc1 (stereo unspecified)", "measuredOn": "UACC-257 melanoma", "TGI": "> 100 µM"}
{"molecule": "COc1ccccc1/C=C/C(=O)/C=C/c1ccccc1O", "measuredOn": "UACC-257 melanoma", "TGI": "3.63 µM"}
{"molecule": "CCN(C(=S)N[C@@H](Cc1ccccc1)C(=O)N[C@@H](CC(C)C)C(=O)OC)c1ccccc1", "measuredOn": "UACC-257 melanoma", "TGI": "> 100 µM"}
{"molecule": "O=c1ncccn1C1C=C(CO)C(O)C1O (stereo unspecified)", "measuredOn": "UACC-257 melanoma", "TGI": "> 50 µM"}
{"molecule": "CC1(C)N=C(C(N)=O)c2ncn(CCCO)c2N1", "measuredOn": "UACC-257 melanoma", "TGI": "> 100 µM"}
{"molecule": "CNC(=O)c1cc2c(Oc3ccc(NC(=O)C4(C(=O)Nc5ccc(F)cc5)CC4)cc3)ccnc2cc1OC", "measuredOn": "UACC-257 melanoma", "TGI": "> 100 µM"}
{"molecule": "O=C1c2cc3c(cc2CC1Br)CCC3 (stereo unspecified)", "measuredOn": "UACC-257 melanoma", "TGI": "5.1 µM"}
{"molecule": "Brc1cccc(Nc2nc(-c3cccs3)nc3ccc(Br)cc23)c1", "measuredOn": "UACC-257 melanoma", "TGI": "74 µM"}

====

Recorded TGI values for a group of molecules are listed next.
Test system: HCT-116 colon
methodNotes: NCI tumour cell line growth inhibition, 48 h

{"molecule": "C[C@H](Cn1ncnn1)Nc1ncc2cc(Oc3ccc(F)cc3F)c(=O)n(C)c2n1", "TGI": "> 25 µM"}
{"molecule": "CC(=O)[O-].CC(=O)[O-].CC(=O)[O-].CC(=O)[O-].[Mo+2].[Mo+2]", "TGI": "> 100 µM"}
{"molecule": "CSc1cc(Cl)c(C)cc1S(=O)(=O)NC(=O)NNc1ccc(Cl)cc1", "TGI": "> 100 µM"}
{"molecule": "CCN(C(=S)N[C@@H](Cc1ccccc1)C(=O)N[C@@H](CC(C)C)C(=O)OC)c1ccccc1", "TGI": "> 100 µM"}
{"molecule": "Cc1ccccc1C(O)(c1nccn1C)c1nccn1C", "TGI": "> 100 µM"}
{"molecule": "Cn1c(/C(C#N)=C/c2ccc3ccccc3c2)cc2ccccc21", "TGI": "> 100 µM"}
{"molecule": "Nc1c(-c2cccc3ccccc23)c2ccc([N+](=O)[O-])cc2c(=O)n1-c1nc2ccccc2s1", "TGI": "> 40.2 µM"}
{"molecule": "CCCCCCCCCCN=C(c1ccc(N(C)C)cc1)c1ccc(N(C)C)cc1", "TGI": "32.9 µM"}
{"molecule": "O=C(CNc1ccccc1Cl)Nn1c(-c2ccccc2)nc2ccccc2c1=O", "TGI": "> 100 µM"}
{"molecule": "Cc1c2c(n(CCc3ccc(Cl)cc3)c1C)NN=C(C#N)S2(=O)=O", "TGI": "> 100 µM"}
{"molecule": "COC(=O)[C@]12CC[C@H]3CN(C(=O)OCc4ccccc4)[C@H]([C@H]31)[C@H](c1ccco1)N2S(=O)(=O)c1ccc(C)cc1", "TGI": "29.2 µM"}
{"molecule": "CC(=O)NNc1nc(C)c(C(=O)NNC(=O)C(=O)Nc2nc3ccc([N+](=O)[O-])cc3s2)s1", "TGI": "> 100 µM"}
{"molecule": "O=P(c1ccccc1)(c1ccccc1)N1O[C@@H](c2ccccc2)C=C[C@H]1c1ccccc1", "TGI": "16.1 µM"}
{"molecule": "OB1OCc2cc(/C=C/c3cccc(C(F)(F)F)c3)ccc21", "TGI": "11.8 µM"}
{"molecule": "C=CC[C@]12C[C@@H](C(=O)OC)N(C(=O)OC)[C@H]1N(S(=O)(=O)c1ccccc1)c1ccccc12", "TGI": "> 100 µM"}
{"molecule": "C[C@H]1[C@H](C)CC[C@]2(C(=O)NCCNCCN)CC[C@]3(C)C(=CC[C@@H]4[C@@]5(C)CCC(=O)C(C)(C)[C@@H]5CC[C@]43C)[C@H]12", "TGI": "3.18 µM"}
{"molecule": "CS(=O)(=O)OCCn1c(=O)n(CCOS(C)(=O)=O)c(=O)n(CCOS(C)(=O)=O)c1=O", "TGI": "> 100 µM"}
{"molecule": "CC(=O)[CH-]C(C)=O.[CH2-]C.[CH2-]C.[Tl+3]", "TGI": "> 100 µM"}
{"molecule": "C=C(CN1CCc2ccccc2C1)c1ccc(C(=O)Nc2ccccc2N)cc1", "TGI": "> 23.2 µM"}
{"molecule": "c1ccc2nc3c(cc4ccccn43)nc2c1", "TGI": "> 100 µM"}
{"molecule": "O=C1C(SCCO)=C(SCCO)C(=O)c2ccccc21", "TGI": "9.54 µM"}
{"molecule": "O=C1CN2C(c3ccccc3)=NN(c3ccc([N+](=O)[O-])cc3)C2(c2ccccc2)c2cc(Cl)ccc2N1CC1CC1 (stereo not drawn)", "TGI": "> 100 µM"}
{"molecule": "COc1nc(C#CCC(C)O)nc(OC)n1 (stereo not drawn)", "TGI": "43.6 µM"}
{"molecule": "C=CCNC(=S)/N=C/c1c(O)c2ccccc2oc1=O", "TGI": "> 100 µM"}
{"molecule": "Cc1csc(-c2cn(C)c3c2C(=O)C(N)=CC3=O)n1", "TGI": "> 100 µM"}
{"molecule": "COC(=O)c1c2c(cc3c1CC1(C3)Cc3cc4c(c(C(=O)OC)c3C1)CCCC4)CCCC2", "TGI": "> 100 µM"}
{"molecule": "CC12CC(=O)C3C(C(=O)C1)C32C (stereo not drawn)", "TGI": "> 100 µM"}
{"molecule": "N#C/C(=C\\c1cc(Br)c(O)c(Br)c1)c1cccnc1", "TGI": "> 100 µM"}
{"molecule": "Cc1c(C(=O)CSc2nc3ccccc3c(=O)n2-c2ccccc2)c(=O)n(-c2ccccc2)n1C", "TGI": "> 100 µM"}
{"molecule": "COc1ccc(Nc2nc3ccccc3nc2-c2cccs2)cc1", "TGI": "> 100 µM"}
{"molecule": "O=C(NCCN1CCOCC1)c1ccc2cc(C(=O)N3CC(CCl)c4ccc([N+](=O)[O-])cc43)[nH]c2c1 (stereo not drawn)", "TGI": "> 100 µM"}
{"molecule": "C1=CC2=CC=CC3c4nc5ccc6ccccc6c5nc4C(=C1)C23 (stereo not drawn)", "TGI": "> 100 µM"}
{"molecule": "CCN(CC)CCNC(=O)c1cn2ncnc(Oc3ccc(NC(=O)Nc4ccc(Cl)c(C(F)(F)F)c4)c(F)c3)c2c1C", "TGI": "3.18 µM"}
{"molecule": "Cl[Si]1(Cl)Oc2ccccc2O[Si](Cl)(Cl)Oc2ccccc2O1", "TGI": "> 100 µM"}
{"molecule": "N#CCCN(CCC#N)c1ccc(/C=C2\\N=C(c3ccccc3)N(c3ccc(Cl)cc3)C2=O)cc1", "TGI": "> 100 µM"}
{"molecule": "O=C1C=CC(=O)N1Nc1ccc([N+](=O)[O-])cc1[N+](=O)[O-]", "TGI": "> 100 µM"}
{"molecule": "COc1ccc(CC(O)CN2CCOCC2)cc1 (stereo not drawn)", "TGI": "> 100 µM"}
{"molecule": "CCOC(=O)NC(=S)NN(C)C1=NCC(C)(C)S1", "TGI": "> 100 µM"}
